test system: XF 498 CNS; assay: NCI tumour cell line growth inhibition, 48 h
Measured attribute: TGI

Consider the reported TGI for these molecules:
COc1cc(CNc2nc3c(NC(C)=O)cc(C(F)(F)F)cc3nc2-c2ccccc2)cc(OC)c1OC : > 100 µM
CNC(=O)N(CCCCC(NC(C)=O)C(=O)NCc1ccccc1)Cc1ccccc1 (stereo unspecified) : > 100 µM
Nc1ncnc2c1ncn2C1C(O)C=C(CO)C1O (stereo unspecified) : < 0.0625 µM

Which TGI reading was recorded for the molecule COc1cc([C@H]2c3cc4c(cc3[C@H](NCc3ccc(F)cc3)C3COC(=O)[C@H]32)OCO4)cc(OC)c1O (stereo partly specified) ? 9.67 µM

Now try O=C(CC/C(CC(=O)c1ccc(Cl)cc1)=N\O)Nc1cccc(Cl)c1 . > 100 µM

For O=C(Nc1c(Cl)cc([N+](=O)[O-])cc1Cl)C(=O)C(C(=O)c1ccncc1)C1OC(=O)c2ccccc21 (stereo unspecified) then? > 100 µM

###

# reported TGI; entries follow
system: NCI-H522 lung; experiment: NCI tumour cell line growth inhibition, 48 h

Previously resolved entries follow.
N#Cc1cc2c(n(C3OC(CO)C(O)C(O)C3O)c1=S)CCC2 (stereo not drawn) : > 100 µM
c1ccc(CN2CCC(CNc3ncnc4ccccc34)C2)cc1 (stereo not drawn) : > 100 µM
CC(=O)Nc1ccc2c(c1)[nH]c(=O)c1cc(Cl)ccc12 : > 100 µM
C=C(CCC(=O)N(CCc1c[nH]c2ccccc12)C(=O)c1ccccc1CSCC)C(=O)OC : > 100 µM

Record request: TGI value, item N=C(N)c1ccc(N=Nc2c(O)c(C(=O)Nc3ccccc3)cc3ccccc23)cc1 34.5 µM

Follow-up item: COc1cc(-c2cc(OC)c(OC)c3ccc(Br)cc23)c2cc(Br)ccc2c1OC 72.1 µM

###

system: T-47D breast; experiment: NCI tumour cell line growth inhibition, 48 h
TGI reference

CN=C1C=C(/N=C2/C=C(N/C(=C\C#N)C(C)(C)O)OC2(C)C)OC1(C)C : > 100 µM

Fill in: TGI of O=C(CCCCCCCCC(=O)N1C(=O)CC(=O)N(c2ccc(Cl)cc2)C1=S)N1C(=O)CC(=O)N(c2ccc(Cl)cc2)C1=S is ___ > 100 µM

One more compound: Cc1cc(C)nc(NS(=O)(=O)c2ccc(NC(=O)c3ccc4nc5ccccc5c(Nc5ccc(S(=O)(=O)N=C(N)N)cc5)c4c3)cc2)n1 > 100 µM

Another compound to look at: CN(Cc1ccccc1)C(=S)S > 100 µM

###

tested on: RXF 393 renal; assay: NCI tumour cell line growth inhibition, 48 h
Measured attribute: TGI (µM)
Answer format: numeric, µM implied, no suffix.

C#CCN(CCCOc1ccc(Cl)cc1Cl)CCCSC(=O)CCCCCN1/C(=C\C=C2/CCCC(/C=C/C3=[N+](CCCCCC(=O)[O-])c4ccccc4C3(C)C)=C2Cl)C(C)(C)c2ccccc21 : 3.37
Cc1ccc(/C=C2\CCCC(C(NO)c3ccc(C)cc3)C2=NO)cc1 (centres undefined) : 71.9
CNc1ccc(CSc2ccc(C)cc2)cc1 : 87.2

// TGI lookup, key: CC1OC23CCCCC2C(C#N)(C#N)C1(C#N)C(=N)O3 (centres undefined) 44.5

Next entry: Clc1ccc(C2=CC(c3ccccc3)N3C(=N[C@H]4CCCC[C@@H]43)N2)cc1 (some centres undefined) 8.44

Note, next up: CC1CC[C@@]2(OC1)OC1C[C@H]3[C@@H]4CC=C5C[C@@H](OC6OC(CO)C(OC7OC(CO)C(O)C(O)C7O)C(O)C6OC6OC(C)C(O)C(O)C6O)CC[C@]5(C)[C@H]4CC[C@]3(C)C1[C@@H]2C (some centres undefined) 0.857

###

system: ACHN renal; experiment: NCI tumour cell line growth inhibition, 48 h; in the data active = GI50 below about 0.43 µM; inactive = the rest
Your response should consist of one outcome taken from active, inactive

COc1ccc(-c2nn(-c3cccc(Cl)c3)cc2-c2c(C#N)c(=O)n3[nH]c(-c4ccc(C)o4)nc3c2C#N)cc1 : inactive

Please let me know the test result on file for Cc1ncc([N+](=O)[O-])n1CCOc1ccc(C(=O)/C=C/c2ccc(C(F)(F)F)cc2)cc1 . inactive

Moving on to CC(=O)O[C@H]1C(=O)[C@@]2(C)C([C@H](OC(=O)c3ccccc3)[C@]3(O)C[C@H](OC(=O)[C@H](O)[C@@H](NC(=O)c4ccc(Cl)cc4)c4ccccc4)C(C)=C1C3(C)C)C1(OC(C)=O)CO[C@@H]1C[C@@H]2O (stereo not given in full) inactive

Could you do the same for COc1cc(-c2ccc[nH]2)[nH]c1/C=C1\N=C(C)C(C(=O)NC(C)C)=C1C , please? inactive

###

test system: HCC-2998 colon; assay: NCI tumour cell line growth inhibition, 48 h
Measured TGI, listed per entry.

Look over these answered cases.
O=C(CCCCCCCCC(=O)N1C(=O)CC(=O)N(c2ccc(Cl)cc2)C1=S)N1C(=O)CC(=O)N(c2ccc(Cl)cc2)C1=S : > 100 µM
O=C(NCCNC1=CC(=O)c2nc3ccccc3c3ccnc1c23)c1cnccn1 : > 100 µM
C=C(C)C1CCC2(C)C1CCC1(C)C2CCC2C3(C)C4OC(OC4=O)C(C)(C)C3CCC21C (configuration not stated) : > 100 µM
N#CC(C#N)=C/C=C/c1ccccc1[N+](=O)[O-] : > 10 µM
NCC1OC(OC2C(N)CC(N)C(O)C2OC2OC(CO)C(O)C2O)C(N)C(O)C1O (configuration not stated) : > 100 µM

Requested read-out: TGI. Entry: Cc1cc(S(=O)(=O)NC2=NCc3c(F)cccc3N2)c(S)cc1Cl > 100 µM

Then this molecule: COC1CCC(OS(C)(=O)=O)C(C)O1 (configuration not stated) > 10 µM

And the next one, Nc1nc2c([nH]1)c1[nH]c3ccccc3c1c1[nH]c3ccccc3c21 ? 5.75 µM

Then this molecule: COC(=O)[C@]1(c2cc3ccccc3[nH]2)CC2CNC1C1OC(C)(C)OC21 (some centres not stated) > 100 µM

Field entry: O=C1Cc2c([nH]c3ccccc23)-c2cc(Br)ccc2N1 > 100 µM

Same for Cc1cc(Br)c(O)c(-c2cscn2)c1 36.2 µM

Try this molecule next: CC(CSc1nc2c(c(=N)n1-c1ccccc1)c(=S)n(-c1ccccc1)c(=S)n2-c1ccccc1)CN(C)C (configuration not stated) 2.7 µM

Ok, now CC[P+](c1ccccc1)(N(C)C)N(C)C > 100 µM

Repeat for the following molecule: O=C(/C=N/O)Nc1cccc(Cl)c1I > 100 µM

// same read-out, input: CC(C)(C)[C@H]1NC(=O)CN1C(=O)OCc1ccccc1 > 100 µM

Would you kindly repeat that for CCOC(=O)CCC(NC(=O)c1ccc(NCc2ccc3nc(OC)c(OC)nc3c2)c2ccccc12)C(=O)OCC (configuration not stated) ? > 100 µM

Can you check Cc1cc(C)nc(NS(=O)(=O)c2ccc(NC(=O)c3ccc4nc5ccccc5c(Nc5ccc(S(=O)(=O)N=C(N)N)cc5)c4c3)cc2)n1 next? > 100 µM

###

tested on: SNB-19 CNS; test: NCI tumour cell line growth inhibition, 48 h
Measured attribute: TGI

The following molecules have reported results that may help.
Cc1cc(C)n(C(C)(C(=O)Cc2ccccc2)n2nc(C)cc2C)n1 : > 100 µM
CN(Cc1cnc2nc(N)nc(N)c2n1)c1c(Cl)cc(C(=O)NC(CCC(=O)O)C(=O)O)cc1Br (stereo unspecified) : > 100 µM
CCOc1ccc(N=Nc2c(-c3ccccc3)nn(C(=O)CC(=O)Nc3ccccc3Cl)c2-c2ccccc2)cc1 : > 100 µM
CC(C)(C)[C@H]1NC(=O)CN1C(=O)OCc1ccccc1 : > 100 µM
CCOC(=O)CC1(N)CC2c3ccccc3OC(=O)C2C(=O)N1 (stereo unspecified) : > 100 µM

Could you tell me which TGI is on file for CCOC(=O)CC1C(C(=O)OCC)=Cn2c([nH]c3cccc4cccc2c43)=C1C(=O)OCC (stereo unspecified) ? > 100 µM

Further, for CCOC(=O)c1cnc2c(ccc3ncccc32)c1OCC ? > 100 µM

Would you mind doing CCOc1ccc(Nc2nc(N)nc(N)c2N=O)cc1 as well? > 100 µM

Likewise for CC1CC(C)(C)CC(OCCN2CCCCC2)(c2ccccc2)C1 (stereo unspecified) ? 26.7 µM

Entry to check: CSC1=C(C)C(/C=N/Nc2ccc([N+](=O)[O-])cc2)=C(C)N(c2ccccc2)S1(=O)=O > 100 µM

Param item: CC1(C)O[C@@H](CCl)C[C@@H](C#N)O1 > 100 µM

###

TGI values by entry
system: MALME-3M melanoma; assay: NCI tumour cell line growth inhibition, 48 h

Solved entries:
COc1cc(C(=O)Nc2ccc(-c3nc4ccccc4[nH]3)cc2)cc(OC)c1OC : 31.6 µM
Clc1ccc(/C=C/c2csnn2)cc1 : > 100 µM
Cc1cc2nc3c(C(OC4OC(CO)C(O)C(O)C4O)C(O)CO)nn(-c4ccc(F)cc4)c3nc2cc1C (stereo not drawn) : > 100 µM
COc1ccc2c(c1)CCC1C2CCC2(C)C(NC(=O)CCCCC3CCSS3)CCC12 (stereo not drawn) : > 100 µM
Cc1c(C(=O)/C=C/c2ccc3c(c2)OCO3)[n+](=O)c2ccccc2n1[O-] : > 100 µM

Reported TGI for CN(C)CC(=O)N1CCc2c([nH]c3ccccc23)C1c1cccnc1 (stereo not drawn) : what is it? > 100 µM

Again, but for COc1cc(C2C3=C(NC(=O)C2C#N)c2ccc4ccccc4c2OCC3)cc(OC)c1OC (stereo not drawn) 72.5 µM

What do we get for COc1cc2ccc(C(C)NCC#N)cc2cc1OC (stereo not drawn) ? > 100 µM

Thanks! And CC(=O)OCCc1cc2ccccc2oc1=O ? > 100 µM

Try the compound Cc1cc(Br)c(O)c(-c2cscn2)c1 43.7 µM

Query COC(=O)[C@]1(c2cc3ccccc3[nH]2)CC2CNC1C1OC(C)(C)OC21 (stereo partly drawn) next > 100 µM

Now the compound Nc1cccc(C(=O)/C=C/c2ccccc2O)c1 > 100 µM

Now consider C/C(=C\C(=O)O)C(=O)N(C)c1ccccc1I . > 100 µM

Another compound: NCC[PH+](c1ccccc1)c1ccccc1.NCC[PH+](c1ccccc1)c1ccccc1.[Cl-].[Pt+4] > 100 µM

Cool, now C=C(/C=C/C=C(\CO)CCC=C(C)C)[C@H]1CCC2([C@H](CCCO)/C(=C(/C)C=O)CC[C@]2(C)O)[C@H]1O (stereo partly drawn) > 100 µM

Try the compound c1ccc2c(c1)ccc1cc3cc(NCCCCNc4ccc5nc6c(ccc7ccccc76)cc5c4)ccc3nc12 3.16 µM

And what about the compound CC1OC23CCCCC2C(C#N)(C#N)C1(C#N)C(=N)O3 (stereo not drawn) ? 43.5 µM

Follow-up entry: CC(C)(C)OC(=O)CC(S(=O)(=O)c1ccccc1)S(=O)(=O)c1ccccc1 4.36 µM

Next entry: Cc1cc(S(=O)(=O)NC2=NCc3c(F)cccc3N2)c(S)cc1Cl > 100 µM

Could you do the same for Cn1cc(C2=C(c3cccc([N+](=O)[O-])c3)C(=O)NC2=O)c2ccccc21 , please? > 25 µM
